molecular target: Calcium/calmodulin-dependent protein kinase type II subunit gamma (Homo sapiens, UniProt Q13555); test: Inhibition of CAMK2g in human HeLa cells lysate pre incubated for 15 mins followed by ADP acyl phosphate probe addition and measured after 10 mins by LC-MS/MS analysis; type: subcellular
Sequence (Q13555 whole entry): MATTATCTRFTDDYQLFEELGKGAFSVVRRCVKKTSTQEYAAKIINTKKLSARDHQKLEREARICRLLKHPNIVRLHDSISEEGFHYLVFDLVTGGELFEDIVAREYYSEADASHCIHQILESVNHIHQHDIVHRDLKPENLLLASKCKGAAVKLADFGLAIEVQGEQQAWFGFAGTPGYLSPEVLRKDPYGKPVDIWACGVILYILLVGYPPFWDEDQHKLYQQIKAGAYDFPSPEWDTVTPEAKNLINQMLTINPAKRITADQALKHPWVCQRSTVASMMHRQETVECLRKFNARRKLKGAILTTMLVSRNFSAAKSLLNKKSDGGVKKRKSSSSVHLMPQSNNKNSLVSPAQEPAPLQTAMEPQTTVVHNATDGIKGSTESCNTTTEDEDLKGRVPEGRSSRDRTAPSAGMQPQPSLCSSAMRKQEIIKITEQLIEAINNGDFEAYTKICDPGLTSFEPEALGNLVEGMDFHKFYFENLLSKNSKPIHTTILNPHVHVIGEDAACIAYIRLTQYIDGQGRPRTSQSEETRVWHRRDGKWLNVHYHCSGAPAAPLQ
pIC50: −log10 of the molar value.

{"columns": ["structure", "pIC50"],
 "data": [
  ["CCOc1cc(N2CCC(O)CC2)ccc1Nc1ncc2c(n1)N(C)c1ccccc1C(=O)N2C", "< 4.30"]
]}

###

biological target: UniProt Q9NWZ3; assay: Inhibition of IRAK4 in human HeLa cells lysate pre incubated for 15 mins followed by ATP acyl phosphate probe addition and measured after 10 mins by LC-MS/MS analysis; assay type: subcellular
Sequence (Q9NWZ3 whole entry): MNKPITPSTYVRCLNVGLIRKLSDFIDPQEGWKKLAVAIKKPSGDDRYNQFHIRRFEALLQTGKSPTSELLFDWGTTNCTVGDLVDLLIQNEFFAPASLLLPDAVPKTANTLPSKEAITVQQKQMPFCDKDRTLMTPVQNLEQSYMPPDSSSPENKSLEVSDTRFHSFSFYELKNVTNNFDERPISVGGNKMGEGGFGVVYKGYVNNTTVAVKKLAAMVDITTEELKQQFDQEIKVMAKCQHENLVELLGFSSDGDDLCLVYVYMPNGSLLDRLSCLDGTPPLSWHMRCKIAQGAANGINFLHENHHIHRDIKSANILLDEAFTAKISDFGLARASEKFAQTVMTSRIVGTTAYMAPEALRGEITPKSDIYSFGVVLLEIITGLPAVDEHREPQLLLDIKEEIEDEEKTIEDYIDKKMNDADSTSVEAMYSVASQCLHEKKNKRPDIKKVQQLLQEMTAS

{"columns": ["structure", "IC50"],
 "data": [
  ["CCOc1cc(N2CCC(O)CC2)ccc1Nc1ncc2c(n1)N(C)c1ccccc1C(=O)N2C", "> 50 µM"]
]}
